ASSAY PROTOCOL: qHTS assay for identifying genotoxic compounds that show differential cytotoxicity against isogenic chicken DT40 cell lines with known DNA damage response pathways - Rad54/Ku70 mutant cell line (AID 743015); note: nearly all actives have a fitted effect of over 60% in size
RUN CONDITIONS: DT40 Rad54/Ku70 mutant viability, CellTiter-Glo, 40 h; series mostly up to 66.8 µM
Records with an inconclusive call do not appear. The source made the active and inactive calls. Calls come from the whole dose curve; as a rule, active = well fitted cell-killing curve with a large enough effect in the repeat runs; inconclusive = weak or mixed curves; inactive = no such curve, though single readings can be large or run the other way.
Please answer using one outcome listed in class 1 = active, class 0 = inactive

OCCN1CCN(CCO)CC1
class 0
Cc1c(N)cccc1N
class 1
CC1(C)C(=O)N(Cl)C(=O)N1Br
class 0

Request: Kindly provide the recorded test outcome for the following compound: OCC(CBr)(CBr)CBr
Result: class 0

Request: # iterate: COc1nc(C)nc(NC(=O)NS(=O)(=O)c2ccccc2OCCCl)n1
Result: class 0

Request: # iterate: CC(C)=CCCC(C)CCOC=O (centres undefined)
Result: class 1

Request: # iterate: CC1=CC(=O)CC(C)(C)C1=O
Result: class 0

Request: # iterate: CCCc1c2oc(C(=O)O)cc(=O)c2cc2c(=O)cc(C(=O)O)n(CC)c12
Result: class 0

* * *

ASSAY PROTOCOL: qHTS assay for small molecule agonists of the antioxidant response element (ARE) signaling pathway (AID 743202); for activation: % is set by controls: 0 for no effect and ±100 for the full control effect
RUN CONDITIONS: HepG2 ARE-bla reporter, beta-lactamase FRET, 16 h; series mostly up to 73.3 µM
Results filed as inconclusive are left out. The source made the active and inactive calls. Calls follow the shape of the dose curve; as a rule, active = well fitted activation curve with a large enough effect in the signal ratio in the repeat runs (not every such curve was filed as active); inconclusive = weak or mixed curves, or effect the other way; inactive = no such curve, though single readings can be large or run the other way; the % refers to the signal ratio.
Please answer using one outcome listed in active, inactive

O=C(CCCl)NCc1ccccc1
inactive
CC(C)CC(=O)OCc1ccccc1
inactive
O=Cc1ccc(O)c(O)c1O
active
NNS(=O)(=O)c1ccc(Oc2ccc(S(=O)(=O)NN)cc2)cc1
inactive
CC(=O)N[C@@H](CC(C)C)C(=O)O
inactive
NC(=O)NS(=O)(=O)c1ccc(Cl)cc1
inactive
COc1cc2c(cc1N)oc1ccccc12
inactive
CN1CCN(c2c(F)cc3c(=O)c(C(=O)O)cn4c3c2SCC4)CC1
inactive

# input for lookup
Request: Kindly provide the recorded test outcome for the following molecule: C=C(C)C(=O)OCCOP(=O)(O)O
Result: inactive

* * *

ASSAY PROTOCOL: Caspase-3/7 induction in HepG2 cells by small molecules, qHTS assay (AID 1346978); note: % is set by controls: 0 for no effect and ±100 for the full control effect; nearly all actives have a fitted effect of over 15% in size
RUN CONDITIONS: HepG2 caspase-3/7 activation, Caspase-Glo luminescence, 17 h; series mostly up to 92.4 µM
Inconclusive results are not listed. The source made the active and inactive calls. Calls follow the shape of the dose curve; as a rule, active = well fitted activation curve with a large enough effect in the repeat runs; inconclusive = weak or mixed curves; inactive = flat fitted curve, though single readings scatter.
MEASURE: caspase activation

Examples from the recorded data:
NC/C=C/C(=O)O
inactive
CC(C)C(=O)OCC(C)(C)C(O)C(C)C (configuration not stated)
inactive
CCCCCCCCCC/C=C/C#N
inactive
CC(C)=CCCC(C)CCOC=O (configuration not stated)
inactive
CCC(=O)c1ccc2c(c1)N(CCCN(C)C)c1ccccc1S2
inactive
C=O
inactive

Turning to the following molecule.
Request: Any idea what its caspase activation is? The molecule is C[C@@H]1CN(c2c(F)c(N)c3c(=O)c(C(=O)O)cn(C4CC4)c3c2F)C[C@H](C)N1
Result: 0.598% [at 19 µM] (inactive)

* * *

EXPERIMENTAL SYSTEM: Luciferin 4-monooxygenase (Photinus pyralis)
ASSAY PROTOCOL: qHTS assay to identify small molecule inhibitors of firefly luciferase (AID 1224835); note: % is set by controls: 0 for no effect and ±100 for the full control effect; nearly all actives have a fitted effect of over 25% in size
RUN CONDITIONS: purified P. pyralis luciferase, luminescence inhibition; series mostly up to 115 µM
Records with an inconclusive call do not appear. Calls of active or inactive are those of the source. Calls come from the whole dose curve; as a rule, active = well fitted inhibition curve with a large enough effect in the repeat runs; inconclusive = weak or mixed curves; inactive = flat fitted curve, though single readings scatter.
MEASURE: activity change, negative = inhibition

Examples from the recorded data:
C[C@@H]1CN(c2c(F)c(F)c3c(=O)c(C(=O)O)cn(C4CC4)c3c2F)C[C@H](C)N1
4.05% [at 23.6 µM] (inactive)
C[C@@H]1CN(c2c(F)c(N)c3c(=O)c(C(=O)O)cn(C4CC4)c3c2F)C[C@H](C)N1
0.766% [at 23.6 µM] (inactive)
NC(Cc1ccc(F)cc1)C(=O)O (centres undefined)
1.28% [at 10.5 µM] (inactive)

Turning to the following molecule.
Request: Any idea what its activity change, negative = inhibition is? The molecule is CN(C)C(=O)NC1(c2ccccc2)CCN(CCC[C@]2(c3ccc(Cl)c(Cl)c3)CCCN(C(=O)c3ccccc3)C2)CC1
Result: -2.4% [at 23.6 µM] (inactive)

* * *

ASSAY PROTOCOL: qHTS assay to identify small molecule antagonists of the thyroid receptor (TR) signaling pathway (AID 743065); note: nearly all actives have a fitted effect of over 55% in size
RUN CONDITIONS: GH3.TRE-Luc, T3-stimulated luciferase inhibition, 23.5 h; series mostly up to 70.3 µM
Results filed as inconclusive are left out. Calls of active or inactive are those of the source. The call rests on the fitted dose curve; in most records, active means well fitted inhibition curve with a large enough effect in the repeat runs; inconclusive means weak or mixed curves; inactive means no such curve, though single readings can be large or run the other way.
Please answer using one outcome listed in label 1 for active, label 0 for inactive

Examples from the recorded data:
CCOc1ccc(NS(=O)(=O)c2ccc(N)cc2)nn1
label 0
O=CCCc1ccccc1
label 0
CC(CNC1CCCCC1)OC(=O)c1ccccc1 (configuration not stated)
label 0
CCCCNCCCC
label 0
Cc1nc(-c2ccccn2)ncc1C(=O)Nn1cc(C)c2cc(F)ccc21
label 0
c1ccc(CN(CC2=NCCN2)c2ccccc2)cc1
label 1

# input for lookup
Request: Kindly provide the recorded test outcome for the following compound: CCOC(=O)COc1ccc2c(c1)CC(NCC(O)c1cccc(Cl)c1)CC2 (configuration not stated)
Result: label 1

* * *

ASSAY PROTOCOL: qHTS RealTime-Glo MT Cell Viability Assay in HepG2 cells - 32 hour (AID 1224877); note: % is set by controls: 0 for no effect and ±100 for the full control effect; nearly all actives have a fitted effect of over 55% in size
RUN CONDITIONS: RealTime-Glo luminescence; series mostly up to 76.8 µM
Results filed as inconclusive are left out. Active and inactive are the calls of the source. Calls follow the shape of the dose curve; as a rule, active = well fitted cell-killing curve with a large enough effect in the repeat runs; inconclusive = weak or mixed curves; inactive = flat fitted curve, though single readings scatter.
MEASURE: activity change, negative = cytotoxic

Examples from the recorded data:
CN(C)C(=O)NC1(c2ccccc2)CCN(CCC[C@]2(c3ccc(Cl)c(Cl)c3)CCCN(C(=O)c3ccccc3)C2)CC1
-9.2% [at 15.8 µM] (inactive)
CC(C)NCC(O)COc1ccc(CCOCC2CC2)cc1 (stereo not drawn)
inactive
Cc1ccc(C)c(N)c1
inactive
COc1cc(Cl)ccc1Cl
inactive
O=C(O)c1cccc(Cl)c1Cl
inactive
C=CCc1cc(OC)c(O)c(C(=O)NCCO)c1
inactive
CCc1cc(Cl)c(OC)c(C(=O)NC[C@@H]2CCCN2CC)c1O
inactive
CC1=C(CC(=O)O)c2cc(F)ccc2/C1=C\c1ccc(S(C)(=O)=O)cc1
inactive

Request: Any idea what its activity change, negative = cytotoxic is? The compound is C=CCCC=C
Result: inactive

Request: # iterate: O=C(CCCl)NCc1ccccc1
Result: inactive

Request: # iterate: O=[N+]([O-])c1nccn1CO[C@@H](CO)[C@H](O)CO
Result: inactive

Request: # iterate: OCCN(CCO)CCN(CCO)CCO
Result: inactive

Request: # iterate: CCCCC(CC)COC(=O)COc1cc(Cl)c(Cl)cc1Cl (stereo not drawn)
Result: inactive

* * *

ASSAY PROTOCOL: qHTS assay for small molecules that induce genotoxicity in human embryonic kidney cells expressing luciferase-tagged ATAD5 - cell viability (AID 651634); note: % is set by controls: 0 for no effect and ±100 for the full control effect; nearly all actives have a fitted effect of over 25% in size
RUN CONDITIONS: HEK293T ATAD5-luc cells viability, CellTiter-Fluor, 15.5 h; series mostly up to 83.3 µM
Records with an inconclusive call do not appear. Active and inactive are the calls of the source. Calls come from the whole dose curve.
Please answer using one outcome listed in active, inactive

CCOC(=O)C1CC(=O)C(=C(O)C2CC2)C(=O)C1 (stereo not drawn)
inactive
CN(C)Cc1ccccc1
inactive
CC(C)C(=O)OC/C=C/c1ccccc1
inactive

Request: Kindly provide the recorded test outcome for the following molecule: N#Cc1ccc(C(c2ccc(C#N)cc2)n2cncn2)cc1
Result: inactive

Request: # iterate: CC1(C)O[C@@H]2C[C@H]3[C@@H]4CCC5=CC(=O)CC[C@]5(C)[C@@]4(F)[C@@H](O)C[C@]3(C)[C@]2(C(=O)CCl)O1
Result: inactive

Request: # iterate: NC1=NCC2c3ccccc3Cc3ccccc3N12 (stereo not drawn)
Result: inactive

Request: # iterate: Nc1ccc2ccccc2c1S(=O)(=O)O
Result: inactive

Request: # iterate: Cc1nnc(SCC2=C(C(=O)O)N3C(=O)[C@@H](NC(=O)Cn4cnnn4)[C@H]3SC2)s1
Result: inactive

* * *

EXPERIMENTAL SYSTEM: Cytochrome P450 2C9 (Homo sapiens) (UniProt P11712)
Sequence (P11712 whole entry, looked up): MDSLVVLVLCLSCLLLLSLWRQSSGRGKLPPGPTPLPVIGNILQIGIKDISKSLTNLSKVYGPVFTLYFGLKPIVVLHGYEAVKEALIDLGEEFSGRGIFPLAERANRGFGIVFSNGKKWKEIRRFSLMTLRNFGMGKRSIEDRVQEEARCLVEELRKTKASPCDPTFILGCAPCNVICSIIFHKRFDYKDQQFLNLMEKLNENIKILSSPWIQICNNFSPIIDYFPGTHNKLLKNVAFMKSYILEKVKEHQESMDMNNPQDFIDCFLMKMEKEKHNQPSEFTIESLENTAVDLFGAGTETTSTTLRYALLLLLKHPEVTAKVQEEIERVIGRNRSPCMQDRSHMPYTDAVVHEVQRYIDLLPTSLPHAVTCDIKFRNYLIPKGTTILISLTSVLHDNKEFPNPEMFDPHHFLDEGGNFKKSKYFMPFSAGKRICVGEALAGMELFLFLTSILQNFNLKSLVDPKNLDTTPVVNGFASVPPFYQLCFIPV
ASSAY PROTOCOL: Cytochrome P450 Family 2 Subfamily C Member 9 (CYP2C9) small molecule antagonists: luciferase reporter qHTS assay (AID 1671198); note: nearly all actives have a fitted effect of over 50% in size
RUN CONDITIONS: P450-Glo CYP2C9 enzyme assay, luciferin luminescence; series mostly up to 53 µM
Records with an inconclusive call do not appear. Activity calls are given as the source filed them. Calls follow the shape of the dose curve; as a rule, active = well fitted inhibition curve with a large enough effect in the repeat runs; inconclusive = weak or mixed curves; inactive = no such curve, though single readings can be large or run the other way.
Please answer using one outcome listed in class 1 = active, class 0 = inactive

CC(=O)OC1C2(C)CCC(C2)C1(C)C (stereo not given)
class 0
CC(=O)Oc1cc(C(C)C)c(OCCN(C)C)cc1C
class 0
C[C@]12C(=O)OC(=O)[C@H]1[C@H]1C=C[C@@H]2C1
class 0

Request: Kindly provide the recorded test outcome for the following compound: C[C@@H]1CN(c2c(F)c(F)c3c(=O)c(C(=O)O)cn(C4CC4)c3c2F)C[C@H](C)N1
Result: class 0

Request: # iterate: CCOC(=O)c1cc(=O)c2c(OCC(COc3cccc4oc(C(=O)OCC)cc(=O)c34)OC(=O)[C@@H](N)CCCCN)cccc2o1
Result: class 1

Data credit: PubChem BioAssay (Tox21)
